System: S. aureus RN4220
test.method.notes: growth inhibition call (relative growth <= 0.2)
measurement.context: 50 µM
Out of some 39,000 compounds screened, about 500 (1.3%) were called active. Shown is part of a subset that was picked to be rich in actives.
The categories you may choose from are 1 = active, 0 = inactive

Known results for compounds:
[
  {
    "compound": "N#C[C@H](N)c1ccc(Cl)cc1",
    "label.class": 0
  },
  {
    "compound": "COCC(=O)N1C[C@H](C)[C@H](OC)CN(C)C(=O)c2ccc(NC(=O)Nc3cccc(F)c3)cc2OC[C@H]1C",
    "label.class": 0
  },
  {
    "compound": "Nc1cc(=O)[nH]c(=O)n1-c1ccc(Cl)cc1",
    "label.class": 0
  },
  {
    "compound": "C[C@@H]1CCCCO[C@@H](CN(C)C(=O)C2CCCCC2)[C@H](C)CN([C@@H](C)CO)C(=O)c2cc(NC(=O)Nc3ccc(C(F)(F)F)cc3)ccc2O1",
    "label.class": 0
  },
  {
    "compound": "CO[C@@H](CN(C)C(=O)Nc1ccc(C(F)(F)F)cc1)[C@@H](C)CN(Cc1ccccc1Cl)[C@@H](C)CO",
    "label.class": 0
  },
  {
    "compound": "CN(C)C(=O)CN1CCn2cc(Cn3cncn3)nc2C1",
    "label.class": 0
  },
  {
    "compound": "CO[C@H](CN(C)C(=O)C1CCOCC1)[C@H](C)CN(C(=O)Nc1ccc(C(F)(F)F)cc1)[C@H](C)CO",
    "label.class": 1
  },
  {
    "compound": "CC1=C(/C=C/C(C)=C/C=C/C(C)=C/C=C/C=C(C)/C=C/C=C(C)/C=C/C2=C(C)CCCC2(C)C)C(C)(C)CCC1",
    "label.class": 0
  },
  {
    "compound": "CO[C@@H]1[C@@H](O[C@@H]2O[C@H](C)[C@@H](O[C@H]3C[C@@](C)(O)[C@@H](O)[C@H](C)O3)[C@H](N(C)C)[C@H]2O)[C@@H](CC=O)C[C@@H](C)[C@@H](O[C@H]2CC[C@H](N(C)C)[C@@H](C)O2)/C=C/C=C/CC(C)OC(=O)C[C@H]1OC(C)=O (stereo partly specified)",
    "label.class": 0
  },
  {
    "compound": "Clc1ccc(CSC(Cn2ccnc2)c2ccc(Cl)cc2Cl)cc1.O=[N+]([O-])O (stereo unspecified)",
    "label.class": 0
  }
]

Hey, what did the test say about COC1C(O)CC(=O)OC(C)CC=CC=CC(OC2CCC(N(C)C)C(C)O2)C(C)CC(CC=O)C1OC1OC(C)C(OC2CC(C)(O)C(O)C(C)O2)C(N(C)C)C1O (stereo unspecified) ?
1

Hey, what did the test say about `CC(=O)O` ?
0

Hey, what did the test say about `C[C@H]1CN([C@@H](C)CO)C(=O)c2cc(NC(=O)C3CC3)ccc2O[C@H]1CN(C)C(=O)Nc1ccc2c(c1)OCO2` ?
0

Hey, what did the test say about `CC(C)(O)CC(=O)NCCn1ccc2ncnc(Nc3ccc(Oc4cccc(C(F)(F)F)c4)c(Cl)c3)c21` ?
1

Hey, what did the test say about N#CC(c1ccc(Cl)cc1)c1c(Cl)cc(-n2ncc(=O)[nH]c2=O)cc1Cl (stereo unspecified) ?
1

Hey, what did the test say about `Cc1noc(C)c1NC(=O)N(C)C[C@@H]1OCCCC[C@@H](C)Oc2ccc(NC(=O)Cc3ccccc3)cc2C(=O)N([C@@H](C)CO)C[C@@H]1C` ?
0
